Test system: MDA-MB-231
method.description: Antiproliferative activity against human MDA-MB-231 cells after 72 hrs by Celltiter-glo luminescence assay
Assay type: functional, cell-based
conditions: MDA-MB-231, 72 h
pEC50: −log10 of the molar value.
result.type: pEC50

For the record `CN(C)CCCOc1nc(-c2ccc(Cl)c(NC(=O)c3coc(N)n3)c2)cs1` , what value of pEC50 is listed for MDA-MB-231?
6.30 to 6.60
